experimental.system: monoclonal antibody 3C10
Sequence (VH, as listed by the source, chain 1 of 2): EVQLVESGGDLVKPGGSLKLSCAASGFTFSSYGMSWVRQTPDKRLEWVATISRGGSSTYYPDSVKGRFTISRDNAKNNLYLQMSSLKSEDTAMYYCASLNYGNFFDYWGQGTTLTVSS
Sequence (VL, as listed by the source, chain 2 of 2): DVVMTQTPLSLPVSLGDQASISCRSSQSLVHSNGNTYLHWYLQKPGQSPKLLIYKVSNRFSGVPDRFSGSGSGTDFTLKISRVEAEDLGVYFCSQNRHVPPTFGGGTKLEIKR
assay.notes: FCS competition: 2 nM Alexa488-PIVKAII (13-27) premixed with 10 nM mAb 3C10, analog peptide added, overnight; D of the tracer; negative control 47±4 (no displacement), positive control 174±10
readout.name: Apparent Diffusion Coefficient (D) (um^2/sec)

>>> value_reported("LERECIEELCNKEEA (Synthetic 15-mer homologous to PIVKA-II 13-27, with plain Glu; also called PIVKAII Gla domain (13-27) analog) [Gla domain Protein S peptide (sequence 15)]")
50
>>> value_reported("LEKECYEEICVYEEA (Synthetic 15-mer homologous to PIVKA-II 13-27, with plain Glu; also called PIVKAII Gla domain (13-27) analog) [Gla domain Protein Z peptide (sequence 16)]")
51
>>> value_reported("LERECKEEQCSFEEA (Synthetic 15-mer homologous to PIVKA-II 13-27, with plain Glu; also called PIVKAII Gla domain (13-27) analog) [Gla domain Factor VII peptide (sequence 13)]")
49
